Below is a list of entries, each paired with its recorded activation value.
# Test System: 5-hydroxytryptamine receptor 2A (Mus musculus) (UniProt P35363)
# Sequence (P35363 whole entry, looked up): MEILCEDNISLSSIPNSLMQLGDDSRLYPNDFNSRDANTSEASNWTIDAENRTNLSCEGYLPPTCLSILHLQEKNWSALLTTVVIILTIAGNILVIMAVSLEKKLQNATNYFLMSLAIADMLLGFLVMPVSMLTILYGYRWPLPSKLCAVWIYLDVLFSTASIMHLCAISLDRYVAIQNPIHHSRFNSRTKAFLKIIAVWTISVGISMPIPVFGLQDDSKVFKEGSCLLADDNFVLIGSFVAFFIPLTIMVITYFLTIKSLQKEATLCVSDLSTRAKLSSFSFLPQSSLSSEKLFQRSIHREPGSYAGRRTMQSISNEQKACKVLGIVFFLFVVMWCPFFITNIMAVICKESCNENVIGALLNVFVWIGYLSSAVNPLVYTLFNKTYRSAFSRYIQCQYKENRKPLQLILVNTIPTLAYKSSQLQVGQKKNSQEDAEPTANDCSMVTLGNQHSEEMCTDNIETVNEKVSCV
# Experiment Notes: mouse Htr2a agonists via beta-arrestin recruitment, primary screen, cell-based, luminescence (AID 624169);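 further: 0% = plate median of compound wells and 100% = 30 µM serotonin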
# Assay Context: CHO-K1 mHTR2A beta-arrestin complementation, at 7.6 µM, active compounds read high, percent of 30 µM serotonin response
Hit rate of the full screen: of about 360,000 compounds, about 2,400 (0.67%) were called active. The list comes from a sample in which actives are over-represented; it also holds close analogues and randomly drawn compounds.
Experimental Readout: activation (%)

[
  {
    "Compound": "Cc1cc(C)n(-c2ccc(NC(=O)C3CCCCN3C(=O)c3cccs3)cc2)n1 (configuration not stated)",
    "Test System": "5-hydroxytryptamine receptor 2A (Mus musculus) (UniProt P35363)",
    "Units Label": "%",
    "Experimental Value": -0.84
  },
  {
    "Compound": "Cn1c2c(c(=O)n(C)c1=O)C(c1cccc([N+](=O)[O-])c1)Nc1ccccc1O2 (configuration not stated)",
    "Test System": "5-hydroxytryptamine receptor 2A (Mus musculus) (UniProt P35363)",
    "Units Label": "%",
    "Experimental Value": -3.64
  },
  {
    "Compound": "Cn1c2c(c(=O)n(C)c1=O)C1c3ccccc3OCC1C(C)(C)O2 (configuration not stated)",
    "Test System": "5-hydroxytryptamine receptor 2A (Mus musculus) (UniProt P35363)",
    "Units Label": "%",
    "Experimental Value": -0.33
  },
  {
    "Compound": "CC1CCCC(NC(=O)c2cc(-c3ccncc3)nc3ccccc23)C1C (configuration not stated)",
    "Test System": "5-hydroxytryptamine receptor 2A (Mus musculus) (UniProt P35363)",
    "Units Label": "%",
    "Experimental Value": -0.93
  },
  {
    "Compound": "Cc1ccc(/C=C/C(=O)OCC(=O)NCc2ccc(Cl)cc2)o1",
    "Test System": "5-hydroxytryptamine receptor 2A (Mus musculus) (UniProt P35363)",
    "Units Label": "%",
    "Experimental Value": -2.51
  },
  {
    "Compound": "COc1cc(OC)cc(C(=O)NNC(=O)CCOc2ccccc2OC)c1",
    "Test System": "5-hydroxytryptamine receptor 2A (Mus musculus) (UniProt P35363)",
    "Units Label": "%",
    "Experimental Value": -0.14
  },
  {
    "Compound": "O=C(O)c1ccc(S(=O)(=O)N2CCC(Cc3ccccc3)CC2)cc1",
    "Test System": "5-hydroxytryptamine receptor 2A (Mus musculus) (UniProt P35363)",
    "Units Label": "%",
    "Experimental Value": 22.2
  },
  {
    "Compound": "Cc1cc(C(=O)OCC(=O)N2C(C)CCCC2C)c2ccccc2n1 (configuration not stated)",
    "Test System": "5-hydroxytryptamine receptor 2A (Mus musculus) (UniProt P35363)",
    "Units Label": "%",
    "Experimental Value": 5
  },
  {
    "Compound": "COc1ccccc1-c1nn(Cc2ccccc2)cc1C(=O)N1CCN(c2ncccn2)CC1",
    "Test System": "5-hydroxytryptamine receptor 2A (Mus musculus) (UniProt P35363)",
    "Units Label": "%",
    "Experimental Value": 11.3
  },
  {
    "Compound": "COC(=O)c1cc(N2CCNCC2)nc2ccccc12",
    "Test System": "5-hydroxytryptamine receptor 2A (Mus musculus) (UniProt P35363)",
    "Units Label": "%",
    "Experimental Value": 54.9
  },
  {
    "Compound": "CCNC(=O)c1cc2c(c(-c3cccc(-c4cncnc4)c3)n1)[C@H](CCO)N(C(C)=O)C2",
    "Test System": "5-hydroxytryptamine receptor 2A (Mus musculus) (UniProt P35363)",
    "Units Label": "%",
    "Experimental Value": -0.81
  },
  {
    "Compound": "C/C(=N/NC(=O)c1ccc(Br)o1)c1ccc(C)o1",
    "Test System": "5-hydroxytryptamine receptor 2A (Mus musculus) (UniProt P35363)",
    "Units Label": "%",
    "Experimental Value": 0.28
  },
  {
    "Compound": "Cc1ccc(CN2CCN(c3ncccn3)CC2)c(C)c1",
    "Test System": "5-hydroxytryptamine receptor 2A (Mus musculus) (UniProt P35363)",
    "Units Label": "%",
    "Experimental Value": 25.6
  },
  {
    "Compound": "Cc1ccc(CN2CCN(/N=C/c3cccnc3)CC2)c(C)c1",
    "Test System": "5-hydroxytryptamine receptor 2A (Mus musculus) (UniProt P35363)",
    "Units Label": "%",
    "Experimental Value": -3.83
  },
  {
    "Compound": "O=C(NCCCN1CCN(c2ccccc2F)CC1)C1CCC(=O)N1C1CCCCC1 (configuration not stated)",
    "Test System": "5-hydroxytryptamine receptor 2A (Mus musculus) (UniProt P35363)",
    "Units Label": "%",
    "Experimental Value": 16.5
  },
  {
    "Compound": "COc1ccc(/C=N/NC(=O)Cn2cc(C(F)(F)F)ccc2=O)cc1",
    "Test System": "5-hydroxytryptamine receptor 2A (Mus musculus) (UniProt P35363)",
    "Units Label": "%",
    "Experimental Value": -1.47
  },
  {
    "Compound": "Cc1csc2ncc(C(=O)N(Cc3ccccc3)c3ccccn3)c(=O)n12",
    "Test System": "5-hydroxytryptamine receptor 2A (Mus musculus) (UniProt P35363)",
    "Units Label": "%",
    "Experimental Value": 0.53
  },
  {
    "Compound": "CCSCc1nc(N)nc(NCCc2ccccc2)n1",
    "Test System": "5-hydroxytryptamine receptor 2A (Mus musculus) (UniProt P35363)",
    "Units Label": "%",
    "Experimental Value": -1.03
  },
  {
    "Compound": "C/C(=N\\NC(=S)NC1CCCCC1)c1ccc(C)o1",
    "Test System": "5-hydroxytryptamine receptor 2A (Mus musculus) (UniProt P35363)",
    "Units Label": "%",
    "Experimental Value": 21.6
  },
  {
    "Compound": "COc1ccc(CN2CC(C(=O)NCCN3CCN(c4ccccc4F)CC3)CC2=O)cc1 (configuration not stated)",
    "Test System": "5-hydroxytryptamine receptor 2A (Mus musculus) (UniProt P35363)",
    "Units Label": "%",
    "Experimental Value": -3.29
  },
  {
    "Compound": "Cc1oc2nc(SCC(=O)NCc3cccnc3)nc(N)c2c1C",
    "Test System": "5-hydroxytryptamine receptor 2A (Mus musculus) (UniProt P35363)",
    "Units Label": "%",
    "Experimental Value": 0.74
  },
  {
    "Compound": "COc1ccc(/C(O)=C2/C(=O)C(=O)N(c3nc(C)c(C)s3)C2c2ccco2)cc1 (configuration not stated)",
    "Test System": "5-hydroxytryptamine receptor 2A (Mus musculus) (UniProt P35363)",
    "Units Label": "%",
    "Experimental Value": 0.59
  }
]
